The measurements presented in this section are drawn from PubChem BioAssay (NCI).

System: SK-MEL-2 melanoma
test.protocol: NCI-60 one-dose screen, 48 h (100 = growth as untreated, 0 = no growth, -100 = all killed)
cond: 10 µM
About 83,000 compounds went through this panel and 20% of them were active in at least one assay; those are over-represented in the sample as a whole.
Response key: criterion met means growth >= -40%; criterion not met means growth < -40%.

1. CCOP(=O)(OCC)O[C@H]1CCC(=O)[C@@H]2[C@H]1[C@H]1C[C@@H]3[C@@]4(C)CCCC(C)(C(=O)OC)[C@@H]4CC[C@@]23C=C1C(C)C (stereo partly drawn)	criterion met
2. O=C1CCC(N2Cc3cc(NC(=O)COc4ccccc4)ccc3C2=O)C(=O)N1 (stereo not drawn)	criterion met
3. CC(=C(c1ccc(OCCN2CCCCCC2)cc1)c1ccc(OCCN2CCCCCC2)cc1)c1ccc(Cl)cc1	criterion not met
4. Cc1cc(=O)oc2cc(OCCCCOc3ccc(/C=C/C(=O)Nc4ccccc4[N+](=O)[O-])cc3)ccc12	criterion met
5. O=C(Nc1ccncc1)c1ccc(-n2c(=O)[nH]c3ccccc3c2=O)cc1	criterion met
6. N#Cc1c(NC(=O)c2ccc(C(F)(F)F)cc2C(F)(F)F)sc2c1CCC(=O)C2	criterion met
7. CCOC(=O)C(Cc1ccccc1)N1C(=O)/C(=C/N2N=C(c3ccc(OC)cc3)CC2c2ccc3ccccc3c2)SC1=S (stereo not drawn)	criterion not met

Okay, now this compound:
Does the compound c1ccc(C(=C(c2ccc(OCCN3CCCCC3)cc2)c2ccc(OCCN3CCCCC3)cc2)C2CCCC2)cc1 have recorded growth that is -40% or more?
criterion not met

* * *

Tested on: SF-295 CNS
test.protocol: NCI-60 one-dose screen, 48 h
cond: 10 µM
Compounds without any hit were thinned out: in the full panel of roughly 83,000, 20% have a hit. Active and inactive are the calls of the source. Rule for the calls: active = growth percent below 10; inactive = the rest.
Respond only with the outcome that fits, drawn from Y (active), N (inactive)

Observe how each entry below is paired with its result.
1. COc1ccsc1/C=N/NC(=O)c1[nH]c2ccc(Br)cc2c1-c1ccccc1	Y
2. CC(=O)C1=C(C)NC(SCC(=O)Nc2ccc(S(=O)(=O)Nc3cc(C)on3)cc2)=NC1c1ccccc1 (centres undefined)	N
3. CN1CCc2c(sc3ncnc(N/N=C/c4cn(-c5ccccc5)nc4-c4ccc(Br)cc4)c23)C1	N

What did the test return for O=C(CS(=O)(=O)c1oc(-c2ccc(Cl)cc2)nc1S(=O)(=O)c1ccc(Cl)cc1)N1CCOCC1 ?
N

Likewise for COc1cc(OC(F)(F)F)ccc1C(=O)Nc1sc2c(c1C#N)CCC(=O)C2 ?
N

Likewise for Cc1ccc(/C=C/C(=O)c2ccc(S(=O)(=O)NCCNc3nc(Nc4ccc(F)cc4)nc(N(C)C)n3)cc2)cc1 ?
N

Likewise for N#Cc1c(-c2ccc(F)cc2)nc(SCc2ccc([N+](=O)[O-])cc2)nc1N1CCOCC1 ?
N

Likewise for COc1cc(-c2nc3cc(Cl)c(Cl)cc3[nH]2)ccc1OCc1nnc(-c2ccc(Br)cc2)o1 ?
Y

Likewise for Cc1ccc2nc(-c3ccc(-c4nnc(SCC(=O)Nc5ccc(Cl)cc5)o4)cc3)[nH]c2c1 ?
N

* * *

Test system: K-562 leukemia
test.protocol: NCI-60 one-dose screen, 48 h (100 = growth as untreated, 0 = no growth, -100 = all killed)
cond: 10 µM
Compounds without any hit were thinned out: in the full panel of roughly 83,000, 20% have a hit.
readout.label: growth (%)
Give bare numbers, in %.

1. O=C(CNc1nc(-c2ccccc2)cs1)Nc1ccc(Br)cc1	6.7

For each of the compounds below, note its growth.
1. N#Cc1ccc(NC(=O)CSc2ccc(-c3ccc(Br)cc3)nn2)cc1
2. COc1ccc(OC)c(-c2cc(-c3c[nH]c4ccccc34)nc(N)c2C#N)c1

1: 48.7; 2: 8.61

* * *

Test system: MDA-MB-231 breast
test.protocol: NCI-60 one-dose screen, 48 h (100 = growth as untreated, 0 = no growth, -100 = all killed)
cond: 10 µM
This is part of a sample that, as a whole, favours compounds with a hit. Of some 83,000 tested, about 20% had one in any assay.
readout.label: growth (%)
Numbers only, in %.

Worked examples, 2 compounds total:
1) O=C(N=Nc1c(O)[nH]c2ccc(Br)cc12)c1ccc2nc(-c3ccccc3)[nH]c2c1	-97.5
2) Nc1nc(Nc2ccc(Cl)cc2)nn1Cc1cccc(Br)c1	42.6

For each of the compounds below, note its growth.
1. O=c1c2ccccc2nc(COc2ccccc2)n1/N=C/c1ccc(N2CCCC2)cc1
2. CN(C)c1cccc2c(S(=O)(=O)Nc3cccc(-c4csc(NC(=O)CCCCCN5CCN(c6cc7c(cc6F)C(=O)N(C6CCC(=O)NC6=O)C7=O)CC5)n4)c3)cccc12 (centres undefined)
3. CCCn1c(O)c(N=Nc2nc(-c3cc4ccccc4oc3=O)cs2)c2cc(Br)ccc21
4. COc1ccc(-c2cc(-c3cc(C(=O)c4ccccc4)n4ccc(C)cc34)nc(N)c2C#N)cc1
5. Nc1cccnc1/C=N/NC(=S)NCCNC(=O)c1ccc(-n2nc(-c3ccccc3O)nc2-c2ccccc2O)cc1
6. CCC(C)S(=O)(=O)c1oc(-c2ccc(C)cc2)nc1S(=O)(=O)c1ccccc1 (centres undefined)
7. Nc1nc2c(F)c(F)c(F)c(F)c2s1

1. 89.2
2. 98
3. 89.2
4. 34.4
5. 19.8
6. -88.1
7. 116

For each of the compounds below, note its growth.
1. Oc1ccc(/C=C2\CCCc3cc4ccc(O)cc4[o+]c32)c(O)c1
2. Cc1ccc(C(=O)CSc2nnc(-c3c[nH]c4ccccc34)n2-c2ccccc2)cc1
3. Cc1cc(C)nc(/N=C(\N)Nc2ccc(S(=O)(=O)Nc3nc(C)cc(C)n3)cc2)n1
4. N#Cc1c(NC(=O)c2ccc(C(O)(C(F)(F)F)C(F)(F)F)cc2)sc2c1CCC(=O)C2
5. Cc1ccc(-c2nc3ccc(C(=O)N=Nc4c(O)[nH]c5ccc(Br)cc45)cc3[nH]2)cc1
6. CC(C)CCSc1nc(NC2CC2)c(C#N)c(-c2ccc(C(C)C)cc2)n1
7. COC1=C[C@]23CCC(=O)N2CCc2cc4c(cc2[C@@H]3[C@@H]1OC(=O)CCCC(C)C)OCO4

1. -27.4
2. -2.39
3. 105
4. -89.7
5. 23
6. 105
7. 98.5

* * *

Tested on: ACHN renal
test.protocol: NCI-60 one-dose screen, 48 h (100 = growth as untreated, 0 = no growth, -100 = all killed)
cond: 10 µM
Procedure: Growth inhibition of the ACHN human tumor cell line is measured as a screen for anti-cancer activity. Cells are grown in 96 well plates and exposed to the test compound for 48 hours. Compounds are tested at a single concentration, which is 10^-5 M for most compounds. The reported endpoint is percent growth (GI% or GIPRCNT), where numbers from 0 - 100% represent growth inhibition, and numbers from -100% - 0 represent cell death. For example, a value of 40 represents 60% growth inhibition. […]
The panel holds about 83,000 compounds, 20% with a hit somewhere; the sample as a whole holds those more often.
Kindly state growth for each of the entries shown.
Answers are plain numbers, in %.

Worked examples, 6 compounds total:
1) CO[C@@H]1CSSC1Cn1nc(-c2ccc(Oc3ccccc3)cc2)c2c(N)ncnc21 (stereo not given in full)	40.4
2) COc1ccc2[nH]c(=O)c(CSc3nccc(-c4ccc(Cl)cc4)n3)cc2c1	-46.2
3) O=C(CNc1nc(-c2ccccc2)cs1)Nc1cccc(Cl)c1	28.3
4) O=C(Nc1nc2ccc([N+](=O)[O-])cc2s1)Nc1ccccc1I	-0.408
5) Cc1ccc(CSc2nc(Cl)c(C#N)c(-c3ccc(F)cc3)n2)cc1	85.4
6) COc1ccc(-c2ccc(/C=N/NC(=O)c3[nH]c4ccc(Br)cc4c3-c3ccccc3)s2)cc1	106

For each of the compounds below, note its growth.
1. COc1ccccc1[C@H]1C(C(=O)c2ccc(Cl)cc2)C2(N[C@@H]1c1ccccc1)C(=O)Nc1ccc(Cl)cc12 (stereo not given in full)
2. COc1ccc2cc([C@H](C)C(=O)NCc3ccccc3)ccc2c1
3. N#Cc1ccc(-c2nn(-c3ccc(C(=O)O)cc3)cc2CNc2cc(Cl)cc(Cl)c2)cc1
4. O=C1Nc2ccc(Cl)cc2/C1=C/c1cccc(OCc2ccccc2)c1
5. NC1=NC(c2ccccc2Cl)N=C(Nc2nn[nH]n2)N1 (stereo not given)
6. CN1CCO/C1=C(/NC(=O)c1ccc(Cl)cc1)[P+](c1ccccc1)(c1ccccc1)c1ccccc1

1: 3.8; 2: 54.9; 3: 55.3; 4: 24.3; 5: 103; 6: 110

For each of the compounds below, note its growth.
1. COc1cc(/C=C/C(=O)c2ccc(F)cc2)ccc1Oc1nc(Nc2ccc(F)cc2)nc(N(C)C)n1
2. O=C(CSc1nnc(-c2c[nH]c3ccccc23)n1-c1ccccc1)c1ccc(Br)cc1
3. O=C(NCCCCCCCCCC[P+](c1ccccc1)(c1ccccc1)c1ccccc1)c1ccc(-n2nc(-c3ccccc3O)nc2-c2ccccc2O)cc1
4. COc1ccc2nc(Cl)c(-c3cc(-c4ccccc4)nc(N)n3)cc2c1

1. 50.9
2. 37.4
3. -98.6
4. 55.4

For each of the compounds below, note its growth.
1. N#Cc1c(Cl)nc(SCc2ccc(F)cc2)nc1-c1ccc(F)cc1
2. COc1ccsc1/C=N/NC(=O)c1[nH]c2ccc(Br)cc2c1-c1ccccc1
3. CN1C(=O)N(C)C2SC(N/N=C/c3cccs3)=NC21 (stereo not given)
4. O=S(=O)(Nc1ncccn1)c1ccc(-n2c(-c3ccc(Br)cc3)nc(-c3ccccc3)c2-c2ccccc2)cc1

99.5
-0.91
38.8
38.5
